Target: dopamine transporter (Homo sapiens)
Construct: expressed in transfected cells; host or cells: HEK-293
Experiment: Dopamine reuptake inhibition in transporter-transfected HEK-293 cells ([3H]-DA)
Format: cell-based
Property: IC50 (nM)
Quick note: give the figure in nM, leave out the unit.

-- ask I have this compound here, "O=C(CCN1CCC(Cc2ccccc2)CC1)Nc1cc2ccccc2[nH]1" , and I need its recorded IC50.
-- reply 278

====

Molecular target: serotonin transporter (Homo sapiens)
Construct: expressed in transfected cells; host or cells: HEK-293
Test: Serotonin reuptake inhibition in transporter-transfected HEK-293 cells ([3H]-5-HT)
Assay type: cell-based
Conditions: concentration at which Ratio % is 50%; 6 concentrations 1 nM to 1 μM; read-out: Triple reuptake inhibition (IC50, μM) SERT
Property: IC50 (µM)
Please give a number only; it is taken to be in µM.

// below: answered compounds
| Compound | Units Of Measure | IC50 |
| --- | --- | --- |
| O=C(NCCN1CCC(Cc2ccccc2)CC1)c1cc2ccccc2[nH]1 [Comparative Example 1, reference compound] | µM | 5.35 |
| O=C(NCCN1CCC(Cc2ccccc2)CC1)c1nc2ccccc2s1 [Example 55] | µM | 3.01 |
| O=C(NCCN1CCC(Cc2ccc(Cl)c(Cl)c2)CC1)c1cc2ccccc2[nH]1 [Example 19] | µM | 0.51 |

Next compound, please.
-- ask Any idea what its IC50 is? The compound is O=C(NCCN1CCC(Cc2ccccc2)CC1)c1nc2cc(O)ccc2[nH]1 [Example 64]
-- reply 0.237

====

Target: serotonin transporter (Homo sapiens)
Construct: expressed in transfected cells; host or cells: HEK-293
Assay: Serotonin reuptake inhibition in transporter-transfected HEK-293 cells ([3H]-5-HT)
Type: cell-based
Settings: compound 1 μM; [3H]-5-HT; relative to control without compound (100%), lower = more inhibition
Property: Triple reuptake inhibition (Ratio %) SERT
Unit % implied. Number only.

-- ask Given the molecule "O=C(NCCN1CCN(c2cccc(Cl)c2Cl)CC1)c1ccc(Cl)c(Cl)c1" , what is its reported Triple reuptake inhibition (Ratio %) SERT?
-- reply 89.10

-- ask Given "O=C(NCCn1ccc(-c2ccc(F)cn2)n1)c1ccc2cc(Br)ccc2c1" , state its recorded Triple reuptake inhibition (Ratio %) SERT.
-- reply 86.83

-- ask So what's the measured Triple reuptake inhibition (Ratio %) SERT for this one? "O=C(NCCN1CCC(Cc2ccccc2)CC1)[C@H]1Cc2ccccc2N1"
-- reply 105.84

-- ask I'd like to know its Triple reuptake inhibition (Ratio %) SERT. The molecule in question is "O=C(NCCN1CCN(Cc2ccc(F)c(F)c2)CC1)c1ccc2cc(Br)ccc2c1"
-- reply 103.19

-- ask Look at this molecule and give its reported Triple reuptake inhibition (Ratio %) SERT. "N#Cc1ccc2[nH]c(C(=O)NCCN3CCC(Cc4ccccc4)CC3)cc2c1"
-- reply 48.50

-- ask Consider the molecule shown here: "O=C(NCCN1CCN(Cc2ccccc2)CC1)c1cc2ccccc2[nH]1" What is its recorded Triple reuptake inhibition (Ratio %) SERT?
-- reply 97.46

-- ask Fill blank: measured Triple reuptake inhibition (Ratio %) SERT of the molecule "CC1(C(=O)NCCN2CCC(Cc3ccccc3)CC2)CC1" is ____.
-- reply 102.65

-- ask Report Triple reuptake inhibition (Ratio %) SERT for "O=C(NCCN1CCN(CC2CCOCC2)CC1)c1cc2ccccc2[nH]1" please.
-- reply 94.24

-- ask Query (molecule): "O=C(NCCN1CCC(Cc2ccccc2)CC1)C1CC1" ; field requested: Triple reuptake inhibition (Ratio %) SERT
-- reply 113.80

====

Quick reference for Triple reuptake inhibition (Ratio %) SERT among some compounds
Biological target: serotonin transporter (Homo sapiens, UniProt P31645)
Construct: expressed in transfected cells; host or cells: HEK-293
Sequence (P31645 whole entry): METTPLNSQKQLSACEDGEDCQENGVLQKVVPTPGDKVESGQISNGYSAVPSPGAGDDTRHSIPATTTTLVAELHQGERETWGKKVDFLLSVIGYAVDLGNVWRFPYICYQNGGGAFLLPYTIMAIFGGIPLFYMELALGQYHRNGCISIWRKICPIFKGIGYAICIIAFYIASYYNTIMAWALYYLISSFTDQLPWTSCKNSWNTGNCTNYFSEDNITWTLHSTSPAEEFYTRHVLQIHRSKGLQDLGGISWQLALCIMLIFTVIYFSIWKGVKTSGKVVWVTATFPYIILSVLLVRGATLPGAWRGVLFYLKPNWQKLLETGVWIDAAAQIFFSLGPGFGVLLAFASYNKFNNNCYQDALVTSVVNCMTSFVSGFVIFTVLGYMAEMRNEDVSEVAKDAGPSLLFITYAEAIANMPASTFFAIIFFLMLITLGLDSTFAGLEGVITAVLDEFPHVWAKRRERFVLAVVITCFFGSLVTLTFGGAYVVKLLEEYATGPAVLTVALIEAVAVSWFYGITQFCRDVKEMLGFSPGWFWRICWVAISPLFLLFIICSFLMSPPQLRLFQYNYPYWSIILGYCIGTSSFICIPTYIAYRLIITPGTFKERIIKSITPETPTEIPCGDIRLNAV
Test: Serotonin reuptake inhibition in transporter-transfected HEK-293 cells ([3H]-5-HT)
Type: cell-based
Conditions: compound 1 μM; [3H]-5-HT; relative to control without compound (100%), lower = more inhibition
Field: numeric (%). Do not append units.

Example entries and their recorded answers appear below.
| Compound | Recorded Measurement |
| --- | --- |
| O=C(NCCN1CCC(Cc2ccccc2)CC1)c1cc2cc(O)c(O)cc2[nH]1 [Example 63] | 38.25 |
| O=C(NCCN1CCC(Cc2ccccc2)CC1)c1nc2ccccc2s1 [Example 55] | 53.01 |
| O=C(NCCN1CCC(Cc2ccccc2)CC1)c1cc2c(Cl)cc(Cl)cc2[nH]1 [Example 39] | 76.27 |

Switching to the query record.
-- ask What does the data say about its Triple reuptake inhibition (Ratio %) SERT? Entry: O=C(NCCN1CCC(Cc2ccccc2)CC1)c1cc2cc(Cl)ccc2[nH]1 [Example 31]
-- reply 58.09

====

Target: norepinephrine transporter (Homo sapiens, UniProt P23975)
Construct: expressed in transfected cells; host or cells: HEK-293
Sequence (P23975 whole entry, species assumed): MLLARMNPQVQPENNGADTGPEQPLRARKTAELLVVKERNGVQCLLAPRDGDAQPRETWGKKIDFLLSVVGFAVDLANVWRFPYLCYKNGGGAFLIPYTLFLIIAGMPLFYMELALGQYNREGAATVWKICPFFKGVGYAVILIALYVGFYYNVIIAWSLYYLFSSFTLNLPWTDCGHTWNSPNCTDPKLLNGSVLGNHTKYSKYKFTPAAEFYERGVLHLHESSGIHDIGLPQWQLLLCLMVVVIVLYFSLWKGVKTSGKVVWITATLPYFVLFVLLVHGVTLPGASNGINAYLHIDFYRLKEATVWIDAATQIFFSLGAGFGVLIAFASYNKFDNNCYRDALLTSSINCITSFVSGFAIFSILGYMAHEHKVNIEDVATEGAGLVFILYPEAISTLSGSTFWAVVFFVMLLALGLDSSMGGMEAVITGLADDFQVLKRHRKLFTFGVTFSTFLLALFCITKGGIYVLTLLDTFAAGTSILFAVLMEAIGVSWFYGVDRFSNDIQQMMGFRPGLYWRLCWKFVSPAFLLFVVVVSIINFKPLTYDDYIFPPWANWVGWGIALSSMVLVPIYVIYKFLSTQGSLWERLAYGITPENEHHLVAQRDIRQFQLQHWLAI
Assay: Norepinephrine reuptake inhibition in transporter-transfected HEK-293 cells ([3H]-NE)
Type: cell-based
Details: compound 1 μM; [3H]-NE; relative to control without compound (100%), lower = more inhibition
Property: Triple reuptake inhibition (Ratio %) NET
Enter your answer as a number in %; do not include the unit.

| Smiles Str | Units Of Measure | Recorded Measurement |
| --- | --- | --- |
| O=C(NCCN1CCC(Cc2ccc(Cl)c(Cl)c2)CC1)c1cc(Cl)cc(Cl)c1 | % | 76.85 |
| O=C(NCCN1CCC(Cc2ccc(Cl)c(Cl)c2)CC1)c1cc2ccccc2[nH]1 | % | 94.93 |
| O=C(NCCN1CCC(Cc2ccccc2)CC1)c1cc2cc(Cl)c(Cl)cc2[nH]1 | % | 94.59 |
| O=C(NCCN1CCC(Cc2ccccc2)CC1)c1cc2cccnc2[nH]1 | % | 81.84 |
| O=C(NCCn1ccc(-c2ccc(F)cn2)n1)c1ccc2cc(Br)ccc2c1 | % | 95.78 |
| O=C(NCCN1CCC(Cc2ccccc2)CC1)c1cc2c(Cl)cc(Cl)cc2[nH]1 | % | 63.99 |
| CCCCOc1ccc(C(=O)NCCN2CCC(c3c[nH]c4ccccc34)CC2)cc1 | % | 97.62 |
| O=C(NCCN1CCC(Cc2ccc(Cl)c(Cl)c2)CC1)c1cc2cc(O)c(O)cc2[nH]1 | % | 73.83 |

-- ask Find the recorded Triple reuptake inhibition (Ratio %) NET belonging to "O=C(NCCN1CCN(c2cccc(Cl)c2Cl)CC1)c1ccc(Cl)c(Cl)c1" and report it.
-- reply 94.42

-- ask Which value of Triple reuptake inhibition (Ratio %) NET has been reported for "COc1ccc2[nH]c(C(=O)NCCN3CCC(Cc4ccccc4)CC3)cc2c1" in the records?
-- reply 65.51

-- ask # input compound: "Cn1c(C(=O)NCCN2CCC(Cc3ccccc3)CC2)cc2ccccc21" ; wanted: its Triple reuptake inhibition (Ratio %) NET
-- reply 28.47

-- ask Entry under review: "Cc1c(C(=O)NCCN2CCC(Cc3ccccc3)CC2)[nH]c2ccccc12" . Reported Triple reuptake inhibition (Ratio %) NET?
-- reply 85.70

-- ask Quick one: Triple reuptake inhibition (Ratio %) NET for "COc1cc2cc(C(=O)NCCN3CCC(Cc4ccccc4)CC3)[nH]c2cc1OC" ?
-- reply 16.10

-- ask // lookup Triple reuptake inhibition (Ratio %) NET for "O=C(NCCN1CCC(Cc2ccccc2)CC1)c1ccccn1"
-- reply 105.84

====

Biological target: dopamine transporter (Homo sapiens, UniProt Q01959)
Construct: expressed in transfected cells; host or cells: HEK-293
Sequence (Q01959 whole entry): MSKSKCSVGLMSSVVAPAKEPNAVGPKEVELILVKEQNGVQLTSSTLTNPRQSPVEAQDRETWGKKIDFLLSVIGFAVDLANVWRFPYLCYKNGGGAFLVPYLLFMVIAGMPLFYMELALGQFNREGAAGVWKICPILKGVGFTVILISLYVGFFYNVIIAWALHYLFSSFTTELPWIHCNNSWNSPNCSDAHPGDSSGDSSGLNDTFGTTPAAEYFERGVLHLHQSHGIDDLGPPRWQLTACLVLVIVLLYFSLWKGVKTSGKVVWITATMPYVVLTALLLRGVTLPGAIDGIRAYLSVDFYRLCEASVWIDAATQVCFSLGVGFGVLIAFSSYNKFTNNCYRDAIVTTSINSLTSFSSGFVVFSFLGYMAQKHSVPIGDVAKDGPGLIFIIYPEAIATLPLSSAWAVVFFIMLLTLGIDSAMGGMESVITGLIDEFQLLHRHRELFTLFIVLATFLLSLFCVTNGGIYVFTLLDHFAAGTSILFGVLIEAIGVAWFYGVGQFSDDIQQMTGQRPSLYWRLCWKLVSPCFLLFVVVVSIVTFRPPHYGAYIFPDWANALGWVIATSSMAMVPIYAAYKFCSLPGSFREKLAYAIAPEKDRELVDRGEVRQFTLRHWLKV
Test: Dopamine reuptake inhibition in transporter-transfected HEK-293 cells ([3H]-DA)
Type: cell-based
Conditions: compound 1 μM; 20-30 nM [3H]-DA; relative to control without compound (100%), lower = more inhibition
Respond with True for Triple reuptake inhibition (Ratio %) DAT values of 80% and above, False for values below.

-- ask In plain terms: is recorded Triple reuptake inhibition (Ratio %) DAT at least 80% for "O=C(NCCN1CCC(Cc2ccc(F)c(F)c2)CC1)c1cc2ccccc2[nH]1" ?
-- reply False

-- ask # bool: Triple reuptake inhibition (Ratio %) DAT of "O=C(NCCN1CCC(c2ccc(Cl)c(Cl)c2)CC1)c1cc2ccccc2[nH]1" >= 80%
-- reply False

-- ask Decide: Triple reuptake inhibition (Ratio %) DAT of "O=C(NCCN1CCC(Cc2ccc(Cl)c(Cl)c2)CC1)c1cc(Cl)cc(Cl)c1" >= 80%?
-- reply False

-- ask Determine whether this compound has Triple reuptake inhibition (Ratio %) DAT no lower than 80%: "O=C(NCCN1CCC(Cc2ccc(Cl)c(Cl)c2)CC1)c1cc2ccccc2[nH]1"
-- reply False

-- ask State whether the measured Triple reuptake inhibition (Ratio %) DAT reaches 80%, counting equality as reaching it, for "CC1(C(=O)NCCN2CCC(Cc3ccccc3)CC2)CC1"
-- reply True

-- ask Assess whether reported Triple reuptake inhibition (Ratio %) DAT for O=C(NC1CCC(Cc2ccccc2)CC1)c1cc2ccccc2[nH]1 (stereo not drawn) sits at 80% or higher.
-- reply False

-- ask Say whether "O=C(NCCN1CCN(c2cccc(Cl)c2Cl)CC1)c1cc2ccccc2[nH]1" shows Triple reuptake inhibition (Ratio %) DAT of 80% or more.
-- reply False

-- ask Decide: Triple reuptake inhibition (Ratio %) DAT of "O=C(NCCN1CCN(c2ccc(Cl)c(Cl)c2)CC1)c1cc2ccccc2[nH]1" >= 80%?
-- reply False

-- ask Triple reuptake inhibition (Ratio %) DAT >= 80% for "O=C(NCCN1CCC(Cc2ccc(Cl)c(Cl)c2)CC1)c1cc2cc(O)c(O)cc2[nH]1" ?
-- reply False

-- ask Decide: Triple reuptake inhibition (Ratio %) DAT of "O=C(NCCN1CCN(Cc2ccccc2)CC1)c1ccc2cc(Br)ccc2c1" >= 80%?
-- reply True

-- ask Check the entry "O=C(NCCN1CCC(Cc2ccccc2)CC1)c1cc2cc(O)ccc2[nH]1" : does Triple reuptake inhibition (Ratio %) DAT equal or exceed 80%?
-- reply False

-- ask Hello, I need to know if "O=C(NCCN1CCN(c2cccc(C(F)(F)F)c2)CC1)c1ccc2cc(Br)ccc2c1" has measured Triple reuptake inhibition (Ratio %) DAT not below 80%. Thanks!
-- reply True

-- ask Hello, I need to know if "O=C(NCCN1CCN(c2ccc(Cl)c(Cl)c2)CC1)c1ccc2cc(Br)ccc2c1" has measured Triple reuptake inhibition (Ratio %) DAT not below 80%. Thanks!
-- reply True

-- ask Textbook exercise: given the entry "O=C(NCCn1ccc(-c2ccc(F)cn2)n1)c1cc2ccccc2[nH]1" , state whether its Triple reuptake inhibition (Ratio %) DAT is greater than or equal to 80%.
-- reply True

-- ask Is reported Triple reuptake inhibition (Ratio %) DAT greater than or equal to 80% here: "O=C(NCCN1CCC(Cc2ccccc2)CC1)c1cc2cc(Cl)c(Cl)cc2[nH]1"
-- reply False

-- ask Hi, just wondering whether "O=C(NCCN1CCN(Cc2ccc(F)c(F)c2)CC1)c1ccc2cc(Br)ccc2c1" shows Triple reuptake inhibition (Ratio %) DAT of 80% or higher.
-- reply True

-- ask Hi, just wondering whether "O=C(NCCN1CCN(Cc2ccc(F)c(F)c2)CC1)c1ccc(Cl)c(Cl)c1" shows Triple reuptake inhibition (Ratio %) DAT of 80% or higher.
-- reply True

-- ask Say whether "O=C(NCCN1CCC(Cc2ccccc2)CC1)C1CC1" shows Triple reuptake inhibition (Ratio %) DAT of 80% or more.
-- reply True

-- ask Exam item: decide whether the reported Triple reuptake inhibition (Ratio %) DAT for CC(CN1CCC(Cc2ccccc2)CC1)NC(=O)c1cc2ccccc2[nH]1 (stereo not drawn) is at least 80%.
-- reply False

-- ask Identify whether the reported Triple reuptake inhibition (Ratio %) DAT of the following compound is 80% or greater: "O=C(NCCN1CCC(Cc2ccccc2)CC1)c1cc2cc(F)c(F)cc2[nH]1"
-- reply False

-- ask Textbook exercise: given the entry "O=C(c1cc2ccccc2[nH]1)N1CCC(Cc2ccccc2)CC1" , state whether its Triple reuptake inhibition (Ratio %) DAT is greater than or equal to 80%.
-- reply True

-- ask Item "COc1cc2cc(C(=O)NCCN3CCC(Cc4ccc(Cl)c(Cl)c4)CC3)[nH]c2cc1OC" with Triple reuptake inhibition (Ratio %) DAT of 80% or above?
-- reply False

-- ask Threshold query (Triple reuptake inhibition (Ratio %) DAT >= 80%) on "O=C(NCCN1CCC(Cc2ccccc2)CC1)c1ccccn1"
-- reply True

-- ask Tell me whether Triple reuptake inhibition (Ratio %) DAT is at least 80% here: "CCCCOc1ccc2cc(C(=O)NCCN3CCC(Cc4ccccc4)CC3)[nH]c2c1"
-- reply False
